# ASSAY SYSTEM: Neuronal acetylcholine receptor subunit alpha-7 (Homo sapiens)
# ASSAY PROTOCOL: Antagonist activity at human alpha-7 nAChR in tsA201 cells coexpressed with Ric3 by FMP assay
# Format: functional, cell-based
# RUN CONDITIONS: read-out: pIC50 (converted)
# Sequence (P36544 whole entry): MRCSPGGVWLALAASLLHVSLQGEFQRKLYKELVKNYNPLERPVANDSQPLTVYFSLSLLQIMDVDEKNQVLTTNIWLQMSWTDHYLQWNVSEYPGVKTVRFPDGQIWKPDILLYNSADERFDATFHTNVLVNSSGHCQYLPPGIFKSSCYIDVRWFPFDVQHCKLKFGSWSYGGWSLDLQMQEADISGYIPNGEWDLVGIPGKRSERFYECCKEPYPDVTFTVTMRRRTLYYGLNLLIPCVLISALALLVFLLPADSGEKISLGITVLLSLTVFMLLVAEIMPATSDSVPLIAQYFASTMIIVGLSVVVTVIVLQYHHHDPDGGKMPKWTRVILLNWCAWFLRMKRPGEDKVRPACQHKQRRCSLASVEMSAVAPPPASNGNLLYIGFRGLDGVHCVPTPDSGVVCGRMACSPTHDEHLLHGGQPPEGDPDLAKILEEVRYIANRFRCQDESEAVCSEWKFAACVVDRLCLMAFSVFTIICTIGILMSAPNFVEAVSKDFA
QUANTITY: IC50 (nM)
Answers are plain numbers, in nM.

Here are 2 molecules together with their reported answers.
What IC50 value was documented for this molecule, C/C=C/C[N+]12CC[C@@H]3[C@@H]4[C@@H]5[C@@H](OCC=C(C1)[C@@H]5C[C@@H]32)N1c2ccccc2[C@@]23CC[N+]5(C/C=C/C)CC6=CCO[C@H]([C@@H]([C@H]12)[C@H]6C[C@@H]35)N4c1ccccc1.[Br-].[Br-] (stereo partly drawn) ?
1150

What IC50 value was documented for this molecule, O=[N+]([O-])c1ccc(C[N+]23CCC4[C@@H]5/C(=C\N6c7ccccc7[C@@]78CC[N+]9(Cc%10ccc([N+](=O)[O-])cc%10)CC%10=CCO[C@H]([C@@H]([C@H]67)[C@H]%10C[C@@H]89)N5c5ccccc5)[C@@H](C[C@@H]42)/C(=C\CO)C3)cc1.[Br-].[Br-] (stereo partly drawn) ?
2450

Continuing:
What IC50 value was documented for this molecule, C=CC[N+]12CC[C@@H]3[C@@H]4[C@@H]5[C@@H](OCC=C(C1)[C@@H]5C[C@@H]32)N1c2ccccc2[C@@]23CC[N+]5(CC=C)CC6=CCO[C@H]([C@@H]([C@H]12)[C@H]6C[C@@H]35)N4c1ccccc1.[Br-].[Br-] (stereo partly drawn) ?
282

###

# ASSAY SYSTEM: Neuronal acetylcholine receptor subunit alpha-7 (Homo sapiens, UniProt P36544)
# ASSAY PROTOCOL: Displacement of [3H]methyllycaconitine from chimeric alpha7nAChR/5HT3A in tsA201 cells
# Format: cell-based
# Sequence (P36544 23-502 limits assumed): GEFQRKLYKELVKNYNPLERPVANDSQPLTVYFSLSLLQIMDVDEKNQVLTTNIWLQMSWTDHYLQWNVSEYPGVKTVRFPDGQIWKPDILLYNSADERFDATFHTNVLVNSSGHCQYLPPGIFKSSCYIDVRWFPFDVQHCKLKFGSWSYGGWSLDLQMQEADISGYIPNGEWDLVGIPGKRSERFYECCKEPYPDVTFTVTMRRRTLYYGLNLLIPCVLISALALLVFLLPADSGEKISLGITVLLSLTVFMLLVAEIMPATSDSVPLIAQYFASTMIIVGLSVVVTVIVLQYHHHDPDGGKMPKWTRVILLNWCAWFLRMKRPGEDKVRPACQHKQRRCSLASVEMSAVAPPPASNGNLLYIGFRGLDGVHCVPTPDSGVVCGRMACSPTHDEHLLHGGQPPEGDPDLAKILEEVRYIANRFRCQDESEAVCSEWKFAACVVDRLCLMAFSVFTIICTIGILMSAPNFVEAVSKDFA
I'd be grateful if you could share measured log10 of Ki for these entries.
Units before log transform: nM; reported quantity: Ki; transform: log10.

Batch of 3 molecules: report log10 of Ki for each.
1. C[N+](C)(C)Cc1c2n(c3ccccc13)Cc1c(C[N+](C)(C)C)c3ccccc3n1C2.[I-].[I-]
2. O=[N+]([O-])c1ccc(C[N+]23CC[C@@H]4[C@@H]5[C@@H]6[C@@H](OCC=C(C2)[C@@H]6C[C@@H]43)N2c3ccccc3[C@@]34CC[N+]6(Cc7ccc([N+](=O)[O-])cc7)CC7=CCO[C@H]([C@@H]([C@H]23)[C@H]7C[C@@H]46)N5c2ccccc2)cc1.[Br-].[Br-] (stereo partly specified)
3. C1=CC([N+]23CC[C@@H]4[C@@H]5[C@@H]6[C@@H](OCC=C(C2)[C@@H]6C[C@@H]43)N2c3ccccc3[C@@]34CC[N+]6(C7C=CCCC7)CC7=CCO[C@H]([C@@H]([C@H]23)[C@H]7C[C@@H]46)N5c2ccccc2)CCC1.[Br-].[Br-] (stereo partly specified)

1: 3.65; 2: 1.26; 3: 2.92

Batch of 3 molecules: report log10 of Ki for each.
1. CCN1C[C@]2(COC(=O)c3ccccc3N3C(=O)C[C@H](C)C3=O)CC[C@H](OC)[C@@]34[C@@H]5C[C@H]6[C@H](OC)[C@@H]5[C@](O)(C[C@@H]6OC)[C@](O)([C@@H](OC)[C@H]23)[C@@H]14 [METHYLLYCACONITINE]
2. C[N+]12CC[C@@H]3[C@@H]4/C(=C\N5c6ccccc6[C@@]67CC[N+]8(C)CC9=CCO[C@H]([C@@H]([C@H]56)[C@H]9C[C@@H]78)N4c4ccccc4)[C@@H](C[C@@H]31)/C(=C\CO)C2.[I-].[I-] (stereo partly specified)
3. C[N+]12CC[C@@H]3[C@@H]4[C@@H]5[C@@H](OCC=C(C1)[C@@H]5C[C@@H]32)N1c2ccccc2[C@@]23CC[N+]5(C)CC6=CCO[C@H]([C@@H]([C@H]12)[C@H]6C[C@@H]35)N4c1ccccc1.[I-].[I-] (stereo partly specified)

1: 0.20; 2: 2.99; 3: 2.52
